- System: HeLa: human cervical cancer cells
- assay explanation: Cytotoxicity by WST-8 assay, HeLa
- Type: cell-based
- settings: Table 3, 48 hours, WST-8
Classify: label 1 when IC50 is strictly less than 10 µM; label 0 when IC50 is not.

[
  {
    "mol": "O=S(=O)([O-])[O-].[Mn+2].c1ccc(CN(Cc2ccccn2)Cc2ccccn2)nc1",
    "classification": "label 1"
  },
  {
    "mol": "O=S(=O)([O-])[O-].[Fe+2].c1ccc(CN(Cc2ccccn2)Cc2ccccn2)nc1",
    "classification": "label 1"
  },
  {
    "mol": "O=S(=O)([O-])[O-].[Zn+2].c1ccc(CN(Cc2ccccn2)Cc2ccccn2)nc1",
    "classification": "label 0"
  },
  {
    "mol": "O=S(=O)([O-])[O-].[Co+2].c1ccc(CN(Cc2ccccn2)Cc2ccccn2)nc1",
    "classification": "label 0"
  },
  {
    "mol": "O=S(=O)([O-])[O-].[Cu+2].c1ccc(CN(Cc2ccccn2)Cc2ccccn2)nc1",
    "classification": "label 0"
  },
  {
    "mol": "O=S(=O)([O-])[O-].[Ni+2].c1ccc(CN(Cc2ccccn2)Cc2ccccn2)nc1",
    "classification": "label 0"
  }
]
